Each recorded value in this set is attributed to the supplement of paper PMC7806825.

Tested on: McpC ligand-binding domain (Salmonella Typhimurium SL1344)
test description: protein melting temperature (Tm) in presence of compound (degrees C); higher = more thermal stabilisation (possible ligand binding)
measurement conditions: Biolog plate: PM03B; compound stock concentration: 10-20 mM, 2 uL in 10 uL reaction
assay endpoint: protein melting temperature

entry smiles: O=NO
protein melting temperature: 46
//
entry smiles: C[C@H](N)C(=O)NCC(=O)O
protein melting temperature: 45.2
//
entry smiles: N[C@H](CC(=O)O)C(=O)O
protein melting temperature: 44.9
//
entry smiles: NCCCCCC(=O)O
protein melting temperature: 44.4
//
entry smiles: NCC(=O)N[C@@H](CCC(N)=O)C(=O)O
protein melting temperature: 45.2
//
entry smiles: NCCO
protein melting temperature: 44.4
//
entry smiles: Cc1c[nH]c(=O)[nH]c1=O
protein melting temperature: 45.1

----------
Test system: McpC ligand-binding domain (Salmonella Typhimurium SL1344)
test description: protein melting temperature (Tm) in presence of compound (degrees C); higher = more thermal stabilisation (possible ligand binding)
measurement conditions: Biolog plate: PM01; compound stock concentration: 10-20 mM, 2 uL in 10 uL reaction
assay endpoint: protein melting temperature

compound: NC(=O)C[C@H](N)C(=O)O
protein melting temperature: 44.4

compound: COC(=O)CCC(=O)O [Mono-Methylsuccinate]
protein melting temperature: 45

compound: OC[C@@H](O)[C@H](O)[C@H](O)[C@@H](O)CO
protein melting temperature: 44.6

compound: N[C@@H](CCC(=O)O)C(=O)O
protein melting temperature: 44.2

compound: C[C@@H](N)C(=O)O
protein melting temperature: 43.9

compound: O=c1[nH]cnc2c1ncn2[C@@H]1O[C@H](CO)[C@@H](O)[C@H]1O
protein melting temperature: 44.4

compound: CC[C@H](O)C(=O)O [a-Hydroxybutyric acid]
protein melting temperature: 44.6

compound: CCC(=O)O
protein melting temperature: 44.9

compound: NCC(=O)N[C@@H](CC(=O)O)C(=O)O
protein melting temperature: 44.4

compound: O=C(CO)[C@@H](O)[C@H](O)[C@H](O)CO
protein melting temperature: 44.3

compound: C[C@@H](O)[C@H](N)C(=O)O
protein melting temperature: 44

compound: O=C(O)[C@@H]1CCCN1
protein melting temperature: 44.3

----------
Tested on: McpC ligand-binding domain (Salmonella Typhimurium SL1344)
test description: protein melting temperature (Tm) in presence of compound (degrees C); higher = more thermal stabilisation (possible ligand binding)
measurement conditions: Biolog plate: PM03B; compound stock concentration: 10-20 mM, 2 uL in 10 uL reaction
assay endpoint: protein melting temperature

molecule: C[C@H](N)C(=O)N[C@@H](CCC(=O)O)C(=O)O [Ala-Glu]
protein melting temperature: 45.2
//
molecule: NCC(=O)O [Glycine]
protein melting temperature: 44.8
//
molecule: NC(=O)CC[C@H](N)C(=O)O [L-Glutamine]
protein melting temperature: 45.1
//
molecule: N[C@@H](Cc1ccccc1)C(=O)O [L-Phenylalanine]
protein melting temperature: 44.8
//
molecule: Oc1nc(O)c2nc(O)[nH]c2n1 [Uric acid]
protein melting temperature: 44.4
//
molecule: NCC(=O)N[C@@H](CC(N)=O)C(=O)O [Gly-Asn]
protein melting temperature: 44.5
//
molecule: NCCC[C@H](N)C(=O)O [L-Ornithine]
protein melting temperature: 44.4
//
molecule: N[C@@H]1C(O)O[C@H](CO)[C@@H](O)[C@@H]1O (stereo partly drawn) [D-Mannosamine]
protein melting temperature: 44.6
//
molecule: NCCCC(=O)O [g-Amino-N-Butyric acid]
protein melting temperature: 44
//
molecule: O=C(O)CC[C@@H](C(=O)O)N1C(=O)c2ccccc2C1=O [N-Phthaloyl-L-Glutamic acid]
protein melting temperature: 44.9
//
molecule: CCCCN [N-Butylamine]
protein melting temperature: 45.3
